System: HL-60
Assay: NCI tumour cell line growth inhibition, 48 h
Activity calls are given as the source filed them. Rule as the data show it: active = GI50 up to about 1.1 µM and inactive = higher.
Field 'call' accepts y = active, n = inactive

Solved cases below.
C/C(Nc1ccc(F)cc1)=C1/CCOC1=O
n
COc1ccc2oc(=O)cc(C)c2c1
n
O=[N+]([O-])c1ccc(NSc2ccccc2)cc1
n
Cc1ccc(S(=O)(=O)N/N=C2\C3CC4CC(C3)C2C4)cc1 (stereo not given)
n
O=C(NC(Cc1c[nH]c2ccccc12)C(=O)Nc1ccc(Br)cc1)OCc1ccccc1 (stereo not given)
n
O=C1CCC(=O)N1CNc1ccc2c(c1)S(=O)(=O)c1ccccc1O2
n
CC1CCC2(CC1)N=C1CCC(C)CC1C1(CCC(C)CC1)N2 (stereo not given)
n
CC12CCC3C(CCC4CC(OC(=O)Cc5ccc(N(CCCl)CCCl)cc5)CCC43C)C1CCC(=O)N2 (stereo not given)
n

Data request: Dear colleague, could you share the recorded outcome for O=C1CCCCCCCCCCOC(=O)CCCCCCCCCCO1 when you have a moment?
Data returned: n

Data request: I'd appreciate the recorded outcome for O=C1c2cc3c(cc2CC12Cc1ccc4c(c1C2=O)CCC4)CCCC3 (stereo not given) from this test.
Data returned: n

Data request: Which outcome was entered for the compound COC(=O)N/N=C(\C)CC(=O)Nc1cccc([N+](=O)[O-])c1 in this test?
Data returned: n

Data request: Record request — test call for CCOC(=O)C1=C(O)C(=O)c2ccsc2C1=O
Data returned: n

====

System: SF-539
Assay: NCI tumour cell line growth inhibition, 48 h
Calls of active or inactive are those of the source. Rule as the data show it: active = GI50 up to about 1.1 µM and inactive = higher.
measure: GI50

In the examples that follow, each entry is paired with its recorded GI50.
COc1ccccc1OC(=O)/C=C/c1ccccc1
> 100 µM (inactive)
CC(C)NC(=O)OCc1nnn2c1CCC2
> 100 µM (inactive)
CC1(C)CNC(=O)C2(CCCO2)CNC(C)(C)CNC(=O)C2(CCCO2)CN1 (stereo not drawn)
> 10 µM (inactive)

Summary for this molecule, C=CCCCCCCCC(O)C1C[C@H](O)C(CCCCC)O1 (stereo partly drawn) : GI50 is 15.8 µM (inactive)

GI50 recorded for this molecule, Cc1c2n(c3ccccc13)CC1C2N(C)OC1(C)C (stereo not drawn) , is > 100 µM (inactive)

GI50 reading for O=C1c2ccc3c4ccccc4n(Cc4ccccc4)c3c2C(=O)N1c1ccccc1 : 17.1 µM (inactive)

Entry Cc1ccc(NC(=O)CCC(=O)C2CC(=O)CCC2=O)cc1C (stereo not drawn) — recorded GI50 = > 100 µM (inactive)

Measured GI50 of Cc1ccc(S(=O)(=O)C2c3nc4ccccc4cc3-c3nc4ccccc4nc32)cc1 (stereo not drawn) : > 100 µM (inactive)

====

System: SK-MEL-2
Assay: NCI tumour cell line growth inhibition, 48 h
Active and inactive are the calls of the source. No stated cut-off is given here; in the data, active = GI50 up to about 1.1 µM and inactive = higher.
GI50 values by entry

CCOC(=O)c1nc2cc(Cl)ccc2[nH]c1=O
> 100 µM (inactive)
Cc1nc2cc3nc4ccccc4c(O)c3cc2s1
> 100 µM (inactive)
Cn1cc2ccccc2c1-c1nc(F)nc(Oc2ccc3c(c2)CC[C@@H]2C3CC[C@@]3(C)C2C[C@H](O)[C@@H]3O)n1 (stereo partly specified)
13 µM (inactive)
COc1ccc(-c2cc(=O)c3c(OC)c(OC)c(OC)c(OC)c3o2)c(OC)c1
19.1 µM (inactive)

Consider the additional compound presented here.
Looking up CC(C(=O)n1ccnc1)N1c2ccccc2Sc2ccccc21 (stereo unspecified) , I see its GI50 listed as > 100 µM (inactive)

====

System: HCT-116
Test: NCI tumour cell line growth inhibition, 48 h
Calls of active or inactive are those of the source. Cut-off read from the data, not from the text of the source: active = GI50 up to about 1.1 µM and inactive = higher.
measure: GI50

For orientation, consider the following solved cases.
O=C(/C=C/c1ccccc1)CCN1CCCCC1
17.4 µM (inactive)
N/N=C1\CCCc2c1no[n+]2[O-]
> 100 µM (inactive)

From here, focus on the item given below.
// field: GI50; key: COC1CC(C)(NC(=O)C(F)(F)F)C2OC(c3ccccc3)OCC2O1 (stereo not drawn) ; value = > 100 µM (inactive)

====

Test system: SF-295
Experiment: NCI tumour cell line growth inhibition, 48 h
Active and inactive are the calls of the source. Cut-off read from the data, not from the text of the source: active = GI50 up to about 1.1 µM and inactive = higher.
Some compounds, each annotated with its measured GI50.

COc1cc(N)c2[nH]c3c(C)ccc(C)c3c2c1
> 100 µM (inactive)

Given item CC(C)=CCOc1cc(NC(=S)c2ccsc2C)ccc1Cl , the value recorded as its GI50 is 36 µM (inactive)

Please fill in: GI50 reported for Cc1cc(S(=O)(=O)NC2=NCc3nc4ccccc4n32)c(S)cc1Cl = 19.9 µM (inactive)

// GI50 lookup, compound = O=C1c2ccccc2C(=O)C2NC(CCCCCSSCCCCCC3=NC4C(=O)c5ccccc5C(=O)C4N3)=NC12 (centres undefined) , result: 4.57 µM (inactive)

====

System: MOLT-4
Assay: NCI tumour cell line growth inhibition, 48 h
Calls of active or inactive are those of the source. No stated cut-off is given here; in the data, active = GI50 up to about 1.1 µM and inactive = higher.
measure: GI50

COC(=O)[C@H]1C2CC[C@@H]3C45C[C@@H](c6ccoc6)O[C@@H]4O[C@@H](O2)C31CCC5C (some centres not stated)
69.7 µM (inactive)
C[C@H]1/C(=C/C(=O)OCCN(C)C)CC[C@H]2[C@H]1C(=O)C[C@H]1C(C)(C)[C@@H](O)CC[C@]21C
> 100 µM (inactive)
NN/C(=N\c1ccc(Cl)cc1)NS(=O)(=O)c1ccc(S(=O)(=O)c2ccccc2)s1
9.16 µM (inactive)

The recorded GI50 for entry CN(Cc1cnc2nc(N)nc(N)c2n1)c1ccc(C(=O)NCCCS(=O)(=O)O)cc1 equals > 100 µM (inactive)

The recorded GI50 for entry COC(=O)C(NC(=O)OC(C)(C)C)P(=O)(OC)OC (configuration not stated) equals > 100 µM (inactive)

Lab note: CCC(C)[C@H](NC(=O)N[C@H](C)c1ccccc1)C(=O)OC (some centres not stated) gave GI50 of > 100 µM (inactive)

Notebook: O=C(c1ccccc1)c1cc(Cl)ccc1NCn1nnc2ccccc21 , GI50 read as 42.1 µM (inactive)

For this compound ( COc1cc2c(cc1C)NC(=O)/C2=C/c1c(Cl)n(-c2ccccc2)c2ccccc12 ), measured GI50 is 4.82 µM (inactive)

====

Tested on: CCRF-CEM
Assay: NCI tumour cell line growth inhibition, 48 h
The source made the active and inactive calls. Cut-off read from the data, not from the text of the source: active = GI50 up to about 1.1 µM and inactive = higher.
Classes to choose from: active, inactive

Below are worked cases with known answers.
COC(=O)C1(Cc2ccccc2)Cc2ccccc2C1O (stereo unspecified)
inactive
CC(=O)O[C@H]1CC[C@@]2(C)[C@H](CC[C@@H]3[C@@H]2CC[C@]2(C)[C@@H](c4ccc(=O)oc4)C[C@H]4O[C@]342)C1
active
CC(=O)O[C@H]1CC[C@@]2(C)C(=CC[C@@H]3C2CC[C@]2(C)Nc4oncc4CC32)C1 (stereo partly specified)
inactive
CCN(CC)CCN1c2ccccc2Sc2ccc3ccccc3c21
inactive
O=[N+]([O-])C1=Cc2c(O)ccc(O)c2C2OC=CC12 (stereo unspecified)
inactive
O=c1cc(N2CCCC2)[nH]c(=O)n1-c1ccc(Cl)cc1
inactive
CCOC(CI)O[C@@H]1C=C[C@H](OC(C)=O)C1 (stereo partly specified)
inactive
O=[N+]([O-])c1cc(I)cc(/C=N/NS(=O)(=O)c2ccc(F)cc2)c1O
inactive
CC[C@@]1(O)C(=O)OCc2c1cc1n(c2=O)Cc2c-1nc1ccc(O)cc1c2[Si](C)(C)C(C)(C)C [AR-67]
active
CSC(=S)CC(O)[C@@H]1CC2c3ccccc3C1c1ccccc12 (stereo partly specified)
inactive

Data request: What did this assay record as the result for CC(=O)NC1=C(C)C(=O)c2c(nc3n2CCC3OC(=O)c2ccccc2)C1=O (stereo unspecified) ?
Data returned: inactive

Data request: For CCn1c(CCCc2nc3c(=O)n(C)c(=O)n(C)c3[nH]2)nc2c1c(=O)n(C)c(=O)n2C , which call appears in the assay record?
Data returned: inactive

Data request: Recorded call for O=C1C[C@H](CCC(=O)OCc2ccccc2)NC(=O)C[C@H](CCC(=O)OCc2ccccc2)NC(=O)C[C@H](CCC(=O)OCc2ccccc2)N1 ?
Data returned: inactive

Data request: What classification did C=C1C(=O)[C@@]23CC[C@@H]4[C@@]5(C)CCC[C@@]4(OC5=O)[C@@]2(C)CC[C@@H]1C3 end up with in this test?
Data returned: active

Data request: Dear colleague, could you share the recorded outcome for COC(=O)C(C(=O)C(=O)Nc1cccc([N+](=O)[O-])c1)c1nc2ccc([N+](=O)[O-])cc2nc1O (stereo unspecified) when you have a moment?
Data returned: inactive

Data request: For this molecule, state the assay outcome: CN(C)C(=S)/N=c1\ssc(=S)n1-c1ccccc1
Data returned: active

====

Tested on: COLO 205
Assay: NCI tumour cell line growth inhibition, 48 h
The source made the active and inactive calls. No stated cut-off is given here; in the data, active = GI50 up to about 1.1 µM and inactive = higher. Residues, ends and D or L forms follow the SMILES beside them. *: point of attachment. Boc = CC(C)(C)OC(=O)*; OBn = c1ccc(CO*)cc1
Returns: one label drawn from 1 = active, 0 = inactive

Worked set:
O=C1Nc2ccccc2/C1=N/NC(=S)N1CCCCC1
1
Cc1nc2c(nc1Cl)nc(Oc1ccc(Cl)cc1)c1ccccc12
0
CC(C)=CCC/C(C)=C/CC/C(C)=C/CSc1ccc(Cl)cc1C(=O)O
0
O=C(O)c1c[nH]c2c(ccc3ncccc32)c1=O
0
CSc1ccc(/C=C2\N=C(c3ccccc3)N(c3nc4c(Cl)cc(Cl)cc4s3)C2=O)cc1
0
O=C(Nc1ccccc1Cl)c1cc(S(=O)(=O)Nc2n[nH]c(=O)n2-c2ccccc2)c(S)cc1Cl
0

Data request: Kindly provide the recorded test outcome for the following compound: CC(C)(C)OC(=O)C(C1NC(C(=O)O)C(C)(C)S1)N1C(=O)c2ccccc2C1=O (stereo not given)
Data returned: 0

Data request: How was COc1ccc(-c2c(-c3ccccc3)c(C)c3ccccn23)cc1 classified in this test?
Data returned: 0

Data request: Just curious, what result did CCOC(=O)C1=C(O)C(=O)c2ccsc2C1=O get here?
Data returned: 0

Data request: Kindly provide the recorded test outcome for the following compound: CC(NC(=O)CNC(=O)OC(C)(C)C)C(=O)NC(Cc1ccccc1)C(=O)OCc1ccccc1 (stereo not drawn) (Boc-Gly-Ala-Phe-OBn; configuration not given here)
Data returned: 0

Data request: Could you kindly confirm the outcome this assay logged for CCOC(=O)CCC(NC(=O)c1ccc(OCc2nc3ccccc3n3cccc23)cc1)C(=O)OCC (stereo not given) ?
Data returned: 0

Data request: // param item: O=C(NCc1ccc2ccc3cccnc3c2n1)c1ccc[n+](Cc2ccccc2)c1 ; yields the recorded call
Data returned: 0

Data request: What is the recorded call for this compound in the test? CCCCCCCCCCCCCCCCCCNc1ccn(C2OC(CO)C(OP(=O)(O)OCC(O)COP(=O)(O)OCC3OC(n4cc(F)c(NCCCCCCCCCCCCCCCCCC)nc4=O)CC3O)C2O)c(=O)n1 (stereo not given)
Data returned: 0

Data request: Status in this test for C=C1CC(OC)(C(OC)C(=O)N[C@H]2OCO[C@H]3C2O[C@H](C[C@@H](COC)OC)C(C)(C)C3OC)O[C@H](C)[C@@H]1C (stereo not given in full) ?
Data returned: 1

Data request: Could you kindly confirm the outcome this assay logged for CCOC(=O)C1=C(NC(C)(C)C)OC/C1=N\NC(=O)Cc1ccccc1 ?
Data returned: 0

Data request: Lab log entry: CN/N=C(/CC(=O)c1sc(NNC(C)=O)nc1C)C(=O)Nc1ccc(OC)cc1OC — outcome as called in the assay?
Data returned: 0

Data request: What classification did CCOC(=O)c1ccc(NCC#CCN2CCCCC2)cc1 end up with in this test?
Data returned: 0

Data request: GET /call?item= O=C(O)CC12CC3CC(CC(O)(C3)C1)C2 returns the recorded outcome of this test.
Data returned: 0

Data request: Tell me the recorded outcome of this test for COC12OC3(C4OC41)C(C(=O)O[C@H]3CO[Si](C)(C)C(C)(C)C)C2C(=O)Oc1ccccc1 (stereo not given in full) .
Data returned: 0

Data request: Short answer needed: outcome of this test for CC(C)C(NCc1c2ccccc2[n+]([O-])c2ccccc12)C(=O)O (stereo not given) ?
Data returned: 0
